Biological target: T1, Dimeric human CD48-mFc (human)
T1 chain: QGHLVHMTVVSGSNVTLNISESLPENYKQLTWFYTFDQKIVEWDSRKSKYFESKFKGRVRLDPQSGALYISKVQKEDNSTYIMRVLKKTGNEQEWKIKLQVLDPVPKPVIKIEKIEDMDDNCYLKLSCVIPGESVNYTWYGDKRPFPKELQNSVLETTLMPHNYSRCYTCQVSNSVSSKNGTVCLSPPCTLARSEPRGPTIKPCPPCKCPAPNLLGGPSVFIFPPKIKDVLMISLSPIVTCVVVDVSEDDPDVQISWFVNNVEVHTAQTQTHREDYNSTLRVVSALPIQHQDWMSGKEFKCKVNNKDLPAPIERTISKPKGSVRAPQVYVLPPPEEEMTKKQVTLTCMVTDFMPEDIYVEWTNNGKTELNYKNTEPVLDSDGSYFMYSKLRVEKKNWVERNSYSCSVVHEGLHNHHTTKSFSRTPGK
Experiment: SPR (Biacore T100), 25 C, antibody captured by anti-Fc, dimeric CD48-mFc in solution
Quantity Kind: koff (s⁻¹)
Number in s⁻¹, nothing else.

binder H4H1707N (antibody, human IgG4, V domains shown, Human IgG4 Fc (prefix H4H)) VH: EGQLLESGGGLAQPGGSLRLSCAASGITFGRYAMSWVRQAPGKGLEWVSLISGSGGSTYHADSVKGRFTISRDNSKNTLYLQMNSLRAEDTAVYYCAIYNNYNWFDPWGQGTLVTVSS VL: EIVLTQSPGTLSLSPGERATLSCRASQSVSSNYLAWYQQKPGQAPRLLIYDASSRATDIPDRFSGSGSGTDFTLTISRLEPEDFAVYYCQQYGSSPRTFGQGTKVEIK , koff observed: 2.83e-05

binder H4H1772P (antibody, human IgG4, V domains shown, Human IgG4 Fc (prefix H4H)) VH: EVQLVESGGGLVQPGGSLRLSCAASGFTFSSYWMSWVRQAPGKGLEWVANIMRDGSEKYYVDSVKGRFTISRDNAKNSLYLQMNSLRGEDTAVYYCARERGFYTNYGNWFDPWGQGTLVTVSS VL: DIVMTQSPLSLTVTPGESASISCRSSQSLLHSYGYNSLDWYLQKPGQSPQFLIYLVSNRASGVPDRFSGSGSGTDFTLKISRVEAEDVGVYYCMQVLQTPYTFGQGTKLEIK , koff observed: 1.29e-05

binder H3M1766N (antibody, V domains shown, also called H2M1766N) VH: EVQLVESGGGLAQPGGSLRLSCAASGFTFSSYEMNWVRQAPGKGLEWVSYITTSGSTIYYADSVKGRFTMSRDNAKKSLYLEMNSLRAEDTAVYYCAREECTNGVCYKDYQYYGMDVWGQGTTVTVSS VL: DIQMTQSPSSVSASVGDRVTITCRASQNINTWLAWYQQKPGKVPKLLIYAASSLQSGVPSRFSGSGSGTDFTLTISSLQPEDFATYYCQQANSFPLTFGGGTKVEIK , koff observed: 6.57e-05

binder H4H1781P (antibody, human IgG4, V domains shown, Human IgG4 Fc (prefix H4H)) VH: QVQLVESGGGVVQPGRSLRLSCAASGFTFSNYGMHWVRQAPGKGLEWVAVIWYDDSNKNYADSVKGRFTISRDNSKNTLYLQMNSLRVEDTAVYYCARDRWTYSHFFEYWGQGTLVTVSS VL: DIQMTQSPSSVSASVGDRVTITCRASQGISSWLAWYQQKPGKAPNLLIYAASSLQSGVPSRFGGSGSGTDFSLTISGLQPEDFATYYCQQANSFPRTFGQGTKVEIK , koff observed: 1.23e-05

binder H2M1763N (antibody, mouse IgG2, V domains shown, Human variable domains, mouse IgG2 Fc (prefix H2M)) VH: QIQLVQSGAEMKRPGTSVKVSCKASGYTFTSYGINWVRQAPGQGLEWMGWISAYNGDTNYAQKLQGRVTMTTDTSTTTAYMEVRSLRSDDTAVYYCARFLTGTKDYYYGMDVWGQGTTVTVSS VL: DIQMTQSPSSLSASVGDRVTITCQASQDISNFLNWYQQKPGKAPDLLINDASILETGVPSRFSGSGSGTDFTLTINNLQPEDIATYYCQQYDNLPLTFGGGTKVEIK , koff observed: 0.000499

binder H2M1710N (antibody, mouse IgG2, V domains shown, Human variable domains, mouse IgG2 Fc (prefix H2M)) VH: QVQLVQSGADMKKPGASVRVSCKASGYTFTDYFIHWVRQAPGQGPEWMGWINPDSGATNYAQQFQGRVTMTRDTSISATYMEMSRLRSDDTAVFYCARDKDGSGWYLDDWGQGTLVTVSS VL: EIVLTQSPATLSLSPGERATLSCRASQSVNIYLAWYQQKPGQAPRLLIYDASNRASGIPARFSGSGSGTDFTLTISSLEPEDFAVYYCQQRSNWPPSITFGQGTRLEIK , koff observed: 9.38e-05
